Biological target: human full-length MKNK1 (Homo sapiens (Human), UniProt Q9BUB5, T344D)
Sequence (Q9BUB5 other isoform, or with tags, fused parts or gaps T344D): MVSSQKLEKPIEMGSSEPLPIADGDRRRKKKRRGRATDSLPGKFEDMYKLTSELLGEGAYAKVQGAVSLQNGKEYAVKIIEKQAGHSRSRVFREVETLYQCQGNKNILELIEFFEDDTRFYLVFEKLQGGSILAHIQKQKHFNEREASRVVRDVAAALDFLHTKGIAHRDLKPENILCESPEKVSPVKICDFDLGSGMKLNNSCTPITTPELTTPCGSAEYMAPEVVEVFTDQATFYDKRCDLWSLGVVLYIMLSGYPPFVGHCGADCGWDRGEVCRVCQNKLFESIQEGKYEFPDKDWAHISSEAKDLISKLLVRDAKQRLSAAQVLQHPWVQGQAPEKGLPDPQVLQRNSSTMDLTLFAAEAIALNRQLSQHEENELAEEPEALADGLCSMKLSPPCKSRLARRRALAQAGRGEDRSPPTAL
Assay: MKNK1 kinase high ATP assay (TR-FRET)
Type: biochemical
Settings: ATP 2 mM final; 15 min preincubation with enzyme
pIC50: −log10 of the molar value.
Classification field: enter satisfied for pIC50 values not below 8, not satisfied for values below it.

| structure | class_label |
| --- | --- |
| OC[C@H]1CCCN1c1ccc2ncc(-c3cc4ccccc4o3)n2n1 | not satisfied |
| OC[C@@H]1CCN(c2ccc3ncc(-c4cc5ccccc5o4)n3n2)C1 | satisfied |

----------
This section presents molecules with their documented IC50 values.
Target: human full-length MKNK1 (Homo sapiens (Human), UniProt Q9BUB5, T344D)
Experiment: MKNK1 kinase assay (TR-FRET)
Assay type: biochemical
Conditions: ATP 10 μM final; 15 min preincubation with enzyme
measured_quantity: IC50 (nM)

| molecule | reported |
| --- | --- |
| O[C@@H]1CCN(c2ccc3ncc(-c4cc5ccccc5o4)n3n2)C1 [Example 9] | 15 |
| OC1CCN(c2ccc3ncc(-c4cc5ccccc5o4)n3n2)C1 (stereo not shown) [Example 3] | 17 |
| OC[C@@H]1CCN(c2ccc3ncc(-c4cc5ccccc5o4)n3n2)C1 [Example 7] | 14 |
| O[C@@H]1CCCN(c2ccc3ncc(-c4cc5ccccc5o4)n3n2)C1 [Example 4] | 44 |
| OC[C@@H]1CCCN1c1ccc2ncc(-c3cc4ccccc4o3)n2n1 [Example 1] | 19 |
| OCC1CCCN(c2ccc3ncc(-c4cc5ccccc5o4)n3n2)C1 (stereo not shown) [Example 5] | 37 |
| O[C@H]1CCN(c2ccc3ncc(-c4cc5ccccc5o4)n3n2)C1 [Example 8] | 19 |
| OC[C@H]1CCCN1c1ccc2ncc(-c3cc4ccccc4o3)n2n1 [Example 2] | 42 |
| OC[C@H]1CCN(c2ccc3ncc(-c4cc5ccccc5o4)n3n2)C1 [Example 10] | 20 |
| OC1CN(c2ccc3ncc(-c4cc5ccccc5o4)n3n2)C1 [Example 6] | 33 |
